Where do these numbers come from? They come from patent US20060046999A1.

Observed IC50 for p38 map kinase (Homo sapiens), reported per entry below.
# number only, unit nM dropped from output

{"STRUCTURE_NOTATION": "Cc1ccc(-n2c(N)c(C(=O)c3ccccc3)ccc2=O)cc1", "MEASUREMENT_UNIT": "nM", "IC50": 209}

# next compound below
Provide p38 map kinase (Homo sapiens) IC50 reading for CC(C)C(Nc1c(C(=O)c2ccccc2)ccc(=O)n1C)C(C)C .
1880
